target-or-test-system: monomeric alpha-synuclein, P37840
run-description: SPR, captured mAb
assay-context: remark: other sources report otherwise
Listed binders paired with reported kon
// units = M⁻¹ s⁻¹; emit number, no label

For the binder shown here, ACI-7079-2507B3-Ab1 (antibody, V domains shown) VH: EVQLVESGGGLVQPKGSLKVSCAASGFTFKTYAMHWVRQAPGKGLEWVARIRSENSNFAKYYADSVKDRFTISRDDSQSMLYLQMHTLKTEDTAIYYCVRGYNGSSLDYWGQGTTLTVSS VL: QIVLTQSPAIMSAFPGERVTMTCSASSSVNYMHWYQQKSGTSPKRWIYDTSKLASGVPARFSGGGSGTSYSLTISNMEAEDAATYYCQQWRSNPPTFGGGTKLEIK , give the reported kon.
245000

For the binder shown here, ACI-7067-1107G5-Ab2 (antibody, V domains shown) VH: QVQLQQPGTELVKPGASVKLSCKASGYTFTKYWMHWVKQRPGQGLEWIGNINPNNGDTNYNEKFKSKATLTVDKSSSTAYMQLSSLTSEDSAVYYCAIAMDYWGQGTSVTVSS VL: DIQMTQSPSSLSAFLGERVSLTCRASQDIGNNLNWFQQEPDGTIKRLIYATSSLDSGVPKRFSGSRSGSEYSLTISSLESEDFVDYYCLQFGSSPLTFGAGTKLELK , give the reported kon.
158000

For the binder shown here, ACI-7079-2501G2-Ab2 (antibody, V domains shown) VH: EVQLVESGGGLVQPKGSLKLSCAASGFNFNTYAMNWVRQAPGKGLEWVARIRTKSNNFATYYAHSVKDRFTISRDDSESMLYLQMNNLKTEDTAMYYCVRQGLAYYAMDYWGQGTSVTVSS VL: DVLMTQTPLSLPVSLGDQVSISCRSSQTIVHSNGNTYLEWYLQKPGQSPKLLIYKVSNRFSGVPDRFSGSGSGTDFTLKISRVEAEDLGVYYCFQGSQGPLTFGAGTKLELK , give the reported kon.
291000

Data origin: patent US20250340623A1
